target: Human immunodeficiency virus type 1 reverse transcriptase (Human immunodeficiency virus 1); experiment: Inhibition of HIV-1 reverse transcriptase at a concentration of 1 uM
Label 1 (yes) when inhibition >= 60%; otherwise 0 (no).

{"columns": ["chemical structure", "assigned category"],
 "data": [
  ["Cc1ccc2c(c1)Oc1ccccc1C(=O)N2C", "1 (yes)"],
  ["CCCN1C(=O)c2cc(N)ccc2Oc2cccc(C)c21", "1 (yes)"],
  ["CCCN1C(=O)c2cccnc2Oc2ccccc21", "0 (no)"],
  ["CCN1C(=O)c2cc(N)ccc2Oc2cccc(C)c21", "1 (yes)"],
  ["CCN1C(=O)c2cc(N)cnc2Oc2cc(C)cc(C)c21", "1 (yes)"],
  ["CN1C(=O)c2cccnc2Oc2cc([N+](=O)[O-])ccc21", "0 (no)"],
  ["CCN1C(=S)c2cccnc2Oc2cc(C)cc(C)c21", "1 (yes)"],
  ["Cc1cc2c(cc1C)N(C)C(=O)c1cc(N)cnc1O2", "1 (yes)"],
  ["CCN1C(=O)c2cccnc2Oc2cccc([N+](=O)[O-])c21", "0 (no)"],
  ["COC(=N)c1cc(C)cc2c1N(C)C(=O)c1cccnc1O2", "0 (no)"],
  ["CON1C(=O)c2ccccc2Oc2ccccc21", "0 (no)"],
  ["Cc1cc(C)c2c(c1)Oc1ccccc1C(=O)N2C", "1 (yes)"],
  ["CCN1C(=O)c2cccnc2Oc2ccccc21", "0 (no)"]
]}

---

biological target: Human immunodeficiency virus type 1 reverse transcriptase (Human immunodeficiency virus 1); test: Inhibition of HIV-1 reverse transcriptase at a concentration of 1 uM
Label class 1 when inhibition >= 70%; otherwise class 0.

{"columns": ["chemical structure", "assigned category"],
 "data": [
  ["CCCN1C(=O)c2cc(N)ccc2Oc2ccc(C)c(C)c21", "class 0"],
  ["Cc1cc(C#N)c2c(c1)Oc1ncccc1C(=O)N2C", "class 1"],
  ["C=CCN1C(=O)c2ccccc2Oc2ccccc21", "class 0"],
  ["CCCN1C(=O)c2ccccc2Sc2ccccc21", "class 1"],
  ["Cc1ccc2c(c1)Oc1ncccc1C(=O)N2", "class 0"],
  ["Cc1cc2c(c([N+](=O)[O-])c1)N(C)C(=O)c1cccnc1O2", "class 1"],
  ["CN1C(=O)c2cccnc2Oc2cc(N)ccc21", "class 0"],
  ["Cc1cc2c(c(C(N)=O)c1)N(C)C(=O)c1cccnc1O2", "class 0"],
  ["CCN1C(=O)c2cc(N)ccc2Oc2cc(C)cc(C)c21", "class 1"],
  ["CCCN1C(=O)c2cc(N)ccc2Oc2ccc(C)cc21", "class 0"],
  ["CC(C)N1C(=O)c2ccccc2Oc2ccccc21", "class 1"],
  ["Cc1ccc2c(c1)Oc1ncc([N+](=O)[O-])cc1C(=O)N2C", "class 0"],
  ["Cc1ccc2c(c1)Oc1ccc(N)cc1C(=O)N2C", "class 1"],
  ["Cc1cc(C)c2c(c1)Oc1ccc(O)cc1C(=O)N2C", "class 1"],
  ["Cc1cc2c(c(C(=O)O)c1)N(C)C(=O)c1cccnc1O2", "class 0"],
  ["CN1C(=O)c2cc(C#N)ccc2Oc2ccccc21", "class 0"]
]}

---

We begin with a simple list: items and their reported inhibition.
biological target: Human immunodeficiency virus type 1 reverse transcriptase (Human immunodeficiency virus 1); assay: Inhibition of HIV-1 reverse transcriptase at a concentration of 1 uM

{"columns": ["chemical structure", "measure unit", "inhibition"],
 "data": [
  ["Cc1cc2c(cc1C)N(C(C)C)C(=O)c1cc(N)cnc1O2", "%", 89],
  ["CCN1C(=O)c2cccnc2Oc2cccc(N)c21", "%", 33],
  ["Cc1cccc2c1N(C)C(=O)c1ccccc1O2", "%", 36],
  ["Cc1ccc2c(c1)Oc1ncc(N)cc1C(=O)N2C", "%", 57]
]}
